Source of measurements: patent US20070010489A1

# Tested on: recombinant HIV-1 30N/50S/82I/88D
# assay-method-text: microbe, parasite or virus in culture
# Assay type: cell-based
# experimental-parameters: MT-4, 30N82I88D; read-out: Cell-based assay (MT-4) EC50/nM 30N82I88D
experimental-endpoint: EC50 (nM)
Use nM as the unit, but write only the number.

Record summary for CCOP(=O)(COc1ccc(CC2C(O)C(O)C(Cc3ccc(OC)cc3)N(Cc3ccc(O)cc3)C(=O)N2Cc2ccc(O)cc2)cc1)OCC (stereo not shown) : reported EC50 = 25

###

# test-target: 84V90M (Human immunodeficiency virus type 1 group M subtype B, UniProt P04585, I572V/L578M)
# assay-method-text: cell-based
# experimental-parameters: Cell-based assay (MT-4)
experimental-endpoint: EC50

The examples below pair each entry with its known result.
CCOP(=O)(COc1ccc(CN2C(=O)N(Cc3ccc4[nH]nc(N)c4c3)C(Cc3ccccc3)C(O)C(O)C2Cc2ccccc2)cc1)OCC (stereo not drawn) : > 6 µM
Nc1n[nH]c2ccc(CN3C(=O)N(CCCCOCP(=O)(O)O)C(Cc4ccccc4)C(O)C(O)C3Cc3ccccc3)cc12 (stereo not drawn) : > 4.24 µM

Notebook: CCCCOC(=O)C(C)NP(=O)(COc1cccc(CN2C(=O)N(Cc3ccc4[nH]nc(N)c4c3)C(Cc3ccccc3)C(O)C(O)C2Cc2ccccc2)c1)NC(C)C(=O)OCCCC (stereo not drawn) , EC50 read as > 6 µM

###

# System: 48V54V82A
# assay-method-text: microbe, parasite or virus in culture
# Format: cell-based, HIV
# experimental-parameters: Cell-based assay (MT-4), 48V54V82A; read-out: EC50 48V54V 82A
experimental-endpoint: EC50 (µM)
Write the answer as a number in µM, unit excluded.

Lab note: O=C1N(Cc2ccccc2)C(Cc2ccccc2)C(O)C(O)C(Cc2ccc(OCP(=O)(O)O)cc2)N1Cc1ccccc1 (stereo not shown) gave EC50 of 1.44

###

# Tested on: recombinant HIV-1 48V/54V/71V/82S
# assay-method-text: microbe, parasite or virus in culture
# Format: cell-based
# experimental-parameters: MT-4, 48V54V82S; read-out: Cell-based assay (MT-4) EC50/nM 48V54V82S
experimental-endpoint: EC50

Item CCOP(=O)(COc1ccc(CC2C(O)C(O)C(Cc3ccc(OC)cc3)N(Cc3ccc(O)cc3)C(=O)N2Cc2ccc(O)cc2)cc1)OCC (stereo not shown) [OCH3, Ph-pOH, OCH2PO3Et2] was tested on recombinant HIV-1 48V/54V/71V/82S; the reported EC50 is 129 nM

###

Listed below: Ki values for each entry.
# test-target: recombinant HIV-1 protease (Human immunodeficiency virus type 1 group M subtype B, UniProt P04585)
# Construct: Enzyme: recombinant HIV-1 protease expressed in E. Coli; purchased Bachem California, Inc. H-9040; host or cells: E. coli
# assay-method-text: biochemical
# experimental-parameters: read-out: Ki

COc1ccc(S(=O)(=O)N(CC(C)C)C[C@@H](O)[C@H](Cc2ccc(OCP(=O)(Oc3ccccc3)Oc3ccccc3)cc2)NC(=O)OC2CCOC2)cc1 (stereo partly shown) : < 0.01 nM

GET /value?item= Nc1n[nH]c2ccc(CN3C(=O)N(Cc4ccc(OCP(=O)(OCc5ccccc5)OCc5ccccc5)cc4)C(Cc4ccccc4)C(O)C(O)C3Cc3ccccc3)cc12 (stereo not shown) &field=Ki returns > 5 nM

Form: molecule = CCOP(=O)(COc1ccc(CN2C(=O)N(Cc3ccc4[nH]nc(N)c4c3)C(Cc3ccccc3)C(O)C(O)C2Cc2ccccc2)cc1)OCC (stereo not shown) ; Ki = > 5 nM

The measured Ki associated with Nc1n[nH]c2ccc(CN3C(=O)N(Cc4ccc(OCc5ccccc5)cc4)C(Cc4ccccc4)C(O)C(O)C3Cc3ccccc3)cc12 (stereo not shown) reads > 5 nM
